tgt: human B-Raf (Homo sapiens, UniProt P15056)
Construct: Flag; GST; made in house; host or cells: Sf9 insect cells (B-Raf); E. coli (MEK1-GST)
Sequence (P15056 whole entry): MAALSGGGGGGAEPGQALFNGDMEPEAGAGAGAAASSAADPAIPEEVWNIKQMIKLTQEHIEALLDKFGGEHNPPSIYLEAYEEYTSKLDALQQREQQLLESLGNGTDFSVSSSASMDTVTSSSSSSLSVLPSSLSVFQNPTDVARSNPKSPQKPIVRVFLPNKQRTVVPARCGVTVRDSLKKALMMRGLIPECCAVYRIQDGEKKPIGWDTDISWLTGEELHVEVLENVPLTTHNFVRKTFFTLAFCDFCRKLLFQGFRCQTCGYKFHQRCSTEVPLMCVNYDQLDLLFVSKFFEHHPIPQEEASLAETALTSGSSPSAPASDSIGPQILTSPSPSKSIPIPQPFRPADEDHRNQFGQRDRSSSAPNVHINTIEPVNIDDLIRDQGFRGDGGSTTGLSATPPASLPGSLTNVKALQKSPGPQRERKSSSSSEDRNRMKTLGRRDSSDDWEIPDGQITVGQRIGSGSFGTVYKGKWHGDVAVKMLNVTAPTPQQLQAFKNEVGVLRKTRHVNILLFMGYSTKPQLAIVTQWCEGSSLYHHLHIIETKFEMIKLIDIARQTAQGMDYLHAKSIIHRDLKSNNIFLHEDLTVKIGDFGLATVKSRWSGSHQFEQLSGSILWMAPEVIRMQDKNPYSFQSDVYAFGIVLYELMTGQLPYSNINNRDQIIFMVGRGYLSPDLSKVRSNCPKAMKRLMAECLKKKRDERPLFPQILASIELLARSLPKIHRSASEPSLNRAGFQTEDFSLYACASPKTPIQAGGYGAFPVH
assay name: B-Raf Kinase to MEK1 ELISA
Assay type: biochemical
condition details: read-out: % Inhib./10 uM
Each record's class is read off its inhibition at 10 µM using these ranges: low group: < 50%; middle group: ≥ 50% and < 80%; high group: ≥ 80%

CCOC(=O)c1cnn2c(-c3cccc(NC(=O)CC(C)CC(C)(C)C)c3)ccnc12 (stereo not drawn) ... low group
CC(C)(C)c1cc2nccc(-c3cccc(NC(=O)c4cccc(C(F)(F)F)c4)c3)n2n1 ... low group
Cc1cc2nccc(-c3cccc(NC(=O)c4ccc(C)c(C(F)(F)F)c4)c3)n2n1 ... low group
Cc1ccc(C(=O)Nc2cccc(-c3ccnc4c(C#N)cnn34)c2)cc1C(F)(F)F ... low group
CCOC(=O)c1cnn2c(-c3cccc(NC(=O)Nc4ccc(Cl)cc4Cl)c3)ccnc12 ... low group
CCOC(=O)c1cnn2c(-c3ccc(F)c(NC(=O)c4cccc(C(F)(F)F)c4)c3)ccnc12 ... middle group
CN(C)Cc1ccccc1-c1cnn2c(-c3cccc(NC(=O)c4cccc(C(F)(F)F)c4)c3)ccnc12 ... high group
O=C(Nc1cccc(-c2ccnc3cc(-c4ccnc(NCCN5CCNC5=O)c4)nn23)c1)c1cccc(C(F)(F)F)c1 ... high group
CN(C)CCNC(=O)c1cnn2c(-c3cccc(NC(=O)c4cccc(C(F)(F)F)c4)c3)ccnc12 ... middle group
O=C(Nc1cccc(-c2ccnc3cc(-c4ccnc(NCCN5CCCCC5)c4)nn23)c1)c1cccc(C(F)(F)F)c1 ... high group
COCCNC(=O)c1cnn2c(-c3cccc(NC(=O)c4cccc(C(F)(F)F)c4)c3)ccnc12 ... middle group
O=C(Nc1cccc(-c2ccnc3cc(N4CCOCC4)nn23)c1)c1ccc(Cl)c(Cl)c1 ... middle group
